Target: T1, Tau peptide Start 415 Stop 434
T1 peptide: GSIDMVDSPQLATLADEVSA
Assay: Pepscan ELISA on an array of linear 20-mer Tau 441 peptides
Set-up: unit not given here
outcome measure: peptide ELISA signal (no name or unit printed)
Reply briefly: the number, and no unit.

The recorded peptide ELISA signal (no name or unit printed) for entry hTau60 monoclonal antibody (recombinant, mouse IgG2a/kappa) (antibody, V domains shown, also called hTau60 (PT1B469)) VH: EVQLQQSGPELVKPGTSVKISCKVFGYTFTDYYMNWVKQSHGKSLEWIGDINPDNGETTYNQKFKGKATLTVDKSSSTAYMELRSLTSEDSAVYYCAKGATFVYWGQGTLVTVSA VL: DVVMTQTPLSLPVSLGDQASISCISSQSLVHSTGTTFLHWFLQKPGQSPKLLIYKVSNRFSGVPDRFSGSGSGTDFTLKISRVEAEDLGFYFCSQSTYFPLTFGSGTKLEIKR equals 24

Origin of the recorded values: patent US20240150451A1
